experimental system: T1, recombinant human IL-2 receptor beta containing a His-tag and Avi-Tag (R&D Systems #AVI10459) (human, UniProt P14784 27-239)
T1 construct: bought protein, held on the Octet SAX2 sensor; also called CD122; IL-2Rβ
T1 sequence (looked up): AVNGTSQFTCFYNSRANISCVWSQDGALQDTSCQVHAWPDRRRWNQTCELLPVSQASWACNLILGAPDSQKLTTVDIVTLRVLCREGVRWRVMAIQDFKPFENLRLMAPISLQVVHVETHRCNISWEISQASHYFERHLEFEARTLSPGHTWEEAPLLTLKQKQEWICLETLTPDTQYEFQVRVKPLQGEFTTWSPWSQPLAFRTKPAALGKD
procedure summary: BLI (Octet), receptor on SAX2 sensor, IL-2 as analyte
*1 amine or outer side, *2 acyl side, *3 side chain or, on linkers, in order; H or OH if unused. Bridges are numbered along the chain shown (N, C = ends). Primed or numbered codes have the meaning given here. [ ]: non-standard residue; d: D form. cleavable peptide RGRRVANLVG = CC(C)C[C@H](NC(=O)[C@H](CC(N)=O)NC(=O)[C@H](C)NC(=O)[C@@H](NC(=O)[C@H](CCCNC(=N)N)NC(=O)[C@H](CCCNC(=N)N)NC(=O)CNC(=O)[C@H](CCCNC(=N)N)N[*:1])C(C)C)C(=O)N[C@H](C(=O)NCC(=O)[*:2])C(C)C; Ygp″ = O-(PEG8-amino)-tyrosine (O-(8x polyethylene glycol-amino)-tyrosine); Yn3″ = O-(PEG9-azido)-tyrosine (O-(9x polyethylene glycol-azido)-tyrosine); Ygp(3) = O-(PEG8-amino)-tyrosine; Yn3(3) = O-(PEG9-azido)-tyrosine; hSer = N[C@@H](CCO)C(=O)O; Nle = CCCC[C@H](N)C(=O)O
measurement kind: kon (M⁻¹ s⁻¹)
# value in M⁻¹ s⁻¹; strip the unit string

// known answers, use as guide
binder	readout number
CMP-319 (ligand, lactam N-33; not fully specified (bridges)) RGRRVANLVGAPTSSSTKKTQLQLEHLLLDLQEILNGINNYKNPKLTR[Nle]L[hSer][Yn3(3)]KF[Ygp(3)][Nle]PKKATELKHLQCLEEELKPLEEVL[hSer]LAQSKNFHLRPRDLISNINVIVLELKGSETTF[hSer]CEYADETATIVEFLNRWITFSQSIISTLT	206000
CMP-136 (ligand, disulfide 58-105; bridge N-29; not fully specified (residue 29, bridges); also: cleavable peptide sequence not given here) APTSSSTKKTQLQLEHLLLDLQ[Nle]ILNGIENYKNPKLTR[Nle]L[hSer][Yn3″]KF[Ygp″][Nle]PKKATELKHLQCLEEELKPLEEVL[hSer]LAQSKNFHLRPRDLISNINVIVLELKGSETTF[hSer]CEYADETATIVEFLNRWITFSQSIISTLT	909000

// kon lookup, key: CMP-328 (ligand, disulfide 58-105; linker 9-23 via cleavable peptide RGRRVANLVG; also: macrocycle: cleavable peptide bridging Lys9 and Glu23 side chains (structure drawing only)) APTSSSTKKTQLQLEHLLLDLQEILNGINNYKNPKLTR[Nle]L[hSer][Yn3(3)]KF[Ygp(3)][Nle]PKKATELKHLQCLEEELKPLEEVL[hSer]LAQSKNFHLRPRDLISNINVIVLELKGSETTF[hSer]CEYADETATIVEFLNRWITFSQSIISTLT
4.52e+07
